// data source = the supplement of paper PMC12042874

measurement_protocol: amyloid nucleation score (Sup35N fusion, yeast selection) (log enrichment); library NNK2; higher = more nucleation; inactive = no reads after selection;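 also: zero at mode of non-aggregating sequences after 7 days selection at 30°C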
reported_property: amyloid nucleation score
Number only, please.

Below, each entry is followed by its recorded amyloid nucleation score result.
>>> readout_value("NIWFKFPHVLNS")
-0.063
>>> readout_value("YYRYPYTLKCPGGLQERQHL")
-0.028
>>> readout_value("GGLAGWSGWNTQDELGCGTT")
0.775
>>> readout_value("LYVTQTS")
-0.053
>>> readout_value("CINANRGRFLKEIMDLVLRE")
-0.586

"SHFVCMWFYYISTWKCS" has a reported amyloid nucleation score of -0.766

"SFPMLVISVS" has a reported amyloid nucleation score of 4.7

"FQSDIKVIIMSTCTISGGRY" has a reported amyloid nucleation score of 1.33

"DCCRWSVLVVIVLAARSSMS" has a reported amyloid nucleation score of 3.17

"RSVVVGGHNLRISTQAILIP" has a reported amyloid nucleation score of 0.34

"RVSDRHV" has a reported amyloid nucleation score of 1.42

"LLYCYSLFVVSFDYTFHQRF" has a reported amyloid nucleation score of 6.15

"NTSFRGTTTRKSY" has a reported amyloid nucleation score of -0.233

"SWGLRTWF" has a reported amyloid nucleation score of 1.06

====

measurement_protocol: amyloid nucleation score (Sup35N fusion, yeast selection) (log enrichment); library NNK2; higher = more nucleation; inactive = no reads after selection
reported_property: amyloid nucleation score

>>> readout_value("ARLLWMRP")
"inactive"
>>> readout_value("TGIDHYFWLFFSYLGTLWSK")
"inactive"
>>> readout_value("AEGSDGCLKLNGAITIGHMI")
"inactive"

====

measurement_protocol: amyloid nucleation score (Sup35N fusion, yeast selection) (log enrichment); library NNK3; higher = more nucleation; inactive = no reads after selection
reported_property: amyloid nucleation score

Below, each entry is followed by its recorded amyloid nucleation score result.
>>> readout_value("RARLMITYYLTDQASDNRYV")
0.799
>>> readout_value("ISHFTARFVSPPMQWLRTCF")
"inactive"
>>> readout_value("SVGRYA")
-0.306
>>> readout_value("TITFSWLAYAVGMQPDNNEV")
1.26
>>> readout_value("ARPNGTTKCVDNGRKPVRII")
"inactive"
>>> readout_value("ASLRCINFMCWLSQTLGVLL")
"inactive"
>>> readout_value("RLLLSGSSVAICCGQLGLGF")
2.11
>>> readout_value("NWDWADE")
"inactive"

"FPWSSRATRSGEVTV" has a reported amyloid nucleation score of inactive

"RLLMKV" has a reported amyloid nucleation score of inactive

"QKHISY" has a reported amyloid nucleation score of inactive

"FLLNLMIHLFYLVLKSRNQN" has a reported amyloid nucleation score of inactive

"NHSSYG" has a reported amyloid nucleation score of inactive

====

measurement_protocol: amyloid nucleation score (Sup35N fusion, yeast selection) (log enrichment); library NNK2; higher = more nucleation; inactive = no reads after selection
reported_property: amyloid nucleation score

Below, each entry is followed by its recorded amyloid nucleation score result.
>>> readout_value("HYITKFSYDLGRKAKALVLS")
-0.626
>>> readout_value("MEFSAKFIYFS")
1.48
>>> readout_value("RSFIGDNYISLRC")
-0.184
>>> readout_value("MMLSYILR")
0.223
>>> readout_value("LRYAYTFDVDLSTRQAAVSL")
-0.573

"HSMQSVPKWKL" has a reported amyloid nucleation score of 1.86

"KKKDSAKLLVTE" has a reported amyloid nucleation score of -0.409

"LFYAAEYKLCMEV" has a reported amyloid nucleation score of -0.857

"HSGFADFGRMEMIRDPTGRD" has a reported amyloid nucleation score of 1.96

"ASQFCNKSSSYRDSRYLYTL" has a reported amyloid nucleation score of -0.802

"SWQDSLYRAQCFLCSWSKTV" has a reported amyloid nucleation score of -0.575

"MFCKLRFSVFLAWVDVK" has a reported amyloid nucleation score of 0.356

"VSSMHFFWF" has a reported amyloid nucleation score of -0.378

"SVVGSYYI" has a reported amyloid nucleation score of -0.878

"RKWYGQTSARADVAVS" has a reported amyloid nucleation score of 0.232

"CRWISTTLIFARCELFRLAV" has a reported amyloid nucleation score of 0.567

"KNSCSMYVMMCGSQVLGLVS" has a reported amyloid nucleation score of 7.75

"QLFVMPCMNSFEGRKRNCFS" has a reported amyloid nucleation score of -0.836

"CSDRSICFANSYFEF" has a reported amyloid nucleation score of -0.101

====

measurement_protocol: amyloid nucleation score (Sup35N fusion, yeast selection) (log enrichment); library NNK1; higher = more nucleation; inactive = no reads after selection
Rule: Satisfied for amyloid nucleation score not less than 0.5, Not satisfied for anything less.

>>> classification("FYLGPCYAVIWVNFQLPLGV")
"Satisfied"
>>> classification("RINQVTGVVQLVFRCRNSRL")
"Satisfied"
>>> classification("SIHVVYNPTFQMNCYTFRLS")
"Satisfied"
>>> classification("FGAFYVGDHG")
"Not satisfied"
>>> classification("FDFYSLRRGGVNYRSLLQVI")
"Not satisfied"
>>> classification("YAMNPHTDGPCTFNWVFYGK")
"Satisfied"

# bool: amyloid nucleation score of "LAHLCINIVSKCSNSWTIGT" >= 0.5 Satisfied

# bool: amyloid nucleation score of "LIDRCWMAGRAFNLLMF" >= 0.5 Not satisfied

# bool: amyloid nucleation score of "FFVKMHIFSFFQVATVVYMH" >= 0.5 Not satisfied

# bool: amyloid nucleation score of "LYFKSSRCR" >= 0.5 Satisfied

# bool: amyloid nucleation score of "TTCSLVSSAAWMY" >= 0.5 Not satisfied

# bool: amyloid nucleation score of "NMEWYRTFCSQCYIGRRGTS" >= 0.5 Not satisfied

====

measurement_protocol: amyloid nucleation score (Sup35N fusion, yeast selection) (log enrichment); library NNK1; higher = more nucleation; inactive = no reads after selection
We begin with a simple list: items and their reported amyloid nucleation score.
Number only, please.

Below, each entry is followed by its recorded amyloid nucleation score result.
>>> readout_value("KKPCVTGYRKNRWEELEP")
-0.393
>>> readout_value("VSIGIISII")
-0.663
>>> readout_value("RCSFIS")
-0.682

"MYVYVQISYFGLHCVWTMYK" has a reported amyloid nucleation score of -0.032

"DLLFAIMMS" has a reported amyloid nucleation score of -0.631

"RLAQYHMYIKFETGYN" has a reported amyloid nucleation score of 1.23

"VIMFSFIS" has a reported amyloid nucleation score of 5.04

"FSFRRFCLCMLREGHTRQLG" has a reported amyloid nucleation score of -0.957

"ERVLYIGFYTYVDNCFRLLK" has a reported amyloid nucleation score of -0.12

"LFVVFHALTIFYP" has a reported amyloid nucleation score of -0.437

"IQRKSITTWSPH" has a reported amyloid nucleation score of 3.43

"YSRTNMFQ" has a reported amyloid nucleation score of -0.649

"ACKCAFSGFSYVAFGPVMGG" has a reported amyloid nucleation score of -1.61

====

measurement_protocol: amyloid nucleation score (Sup35N fusion, yeast selection) (log enrichment); library NNK1; higher = more nucleation; inactive = no reads after selection
Note to self: class labels come from recorded amyloid nucleation score, ranges listed here: A = under 0.3, B = from 0.3 up to 0.8, C = 0.8 and over

>>> classification("SGQPMIPGTCDNWNWRDYFT")
"C"
>>> classification("IPKVIGWFTVVTTGVVVDIS")
"C"
>>> classification("VYRIWSSSGNYKEVYAHRAL")
"C"
>>> classification("HSDCRFRKLGRTHTSMRVCC")
"A"
>>> classification("MNENCGFVKFVRSKKRFKDV")
"A"

Hey, which category is "DNRLEYSAGLVRVTRDAKGE" in, do you know? A

Hey, which category is "LEYYLVWYNVYL" in, do you know? B

Hey, which category is "VSLLVSICLLRLSLVSI" in, do you know? A

====

measurement_protocol: amyloid nucleation score (Sup35N fusion, yeast selection) (log enrichment); library NNK1; higher = more nucleation; inactive = no reads after selection
reported_property: amyloid nucleation score
Number only, please.

Below, each entry is followed by its recorded amyloid nucleation score result.
>>> readout_value("EDRDTLKGM")
0.806
>>> readout_value("CPLSNGSVRVNDGATTLAWL")
-0.956
>>> readout_value("YYCYLLTNHPNTNGSVAFRL")
0.934
>>> readout_value("WSIDVNTTACKFFFRCSSCN")
1.43
>>> readout_value("IYGELLHLWLISEFCDVRNC")
0.788

"MFCIDSRAVAGMRDGRINLG" has a reported amyloid nucleation score of 1.64

"SEAMGMDNSQWSFALFMASM" has a reported amyloid nucleation score of 0.184

"FSQVSEEIIGVFLSISYCIL" has a reported amyloid nucleation score of 2.93

"RLAVKDNVCKLDMMSGCCLS" has a reported amyloid nucleation score of 5.45
